System: apyrase
assay.info: Screen for apyrase inhibitors (Method 1, in vitro phosphate-release absorbance assay)
Format: biochemical
condition.label: inhibitor conc at 1 mM stock, 1 hr room temperature, absorbance 630 nm; rounded average of two assay results
Could you please classify the records by % Inhibition of Apyrase using these ranges: 0 = under 50%, 1 = from 50% up to 60%, 2 = 60% and over

compound | category
Cc1cccc(NC(=O)c2cccc(S(=O)(=O)N3CCc4ccccc43)c2)c1 | 2
O=C(Nc1cccc(S(=O)(=O)Nc2ccccc2Cl)c1)c1ccccn1 | 0
Cc1cccc(NC(=O)c2cccc(NS(=O)(=O)c3ccc4c(c3)OCCO4)c2)c1C | 2
Cc1ccc(C(=O)Nc2ccc(S(=O)(=O)Nc3ccc(F)cc3)cc2)cc1Br | 2
O=C(Nc1ccc2c(c1)OCO2)c1ccc(NS(=O)(=O)c2ccc3c(c2)OCCO3)cc1 | 1
C[S+]([O-])c1ccc(C(=O)Nc2cccc(S(=O)(=O)Nc3ccc(Br)cc3)c2)cc1 (stereo not drawn) | 0
O=C(Nc1[nH]ncc1-c1ccccc1)c1cccc(NS(=O)(=O)c2ccc(F)c(F)c2)c1 | 0
CCNC(=O)c1cccc(NC(=O)c2cccc(S(=O)(=O)Nc3cccc(C(F)(F)F)c3)c2)c1 | 0
O=C(Nc1cccc2ncccc12)c1cccc(NS(=O)(=O)c2cccs2)c1 | 1
Cc1ccc(C(=O)Nc2ccc([N+](=O)[O-])cc2)cc1S(=O)(=O)Nc1ccc(Br)cc1 | 2
COc1ccc([N+](=O)[O-])cc1NC(=O)c1ccc(C)c(S(=O)(=O)Nc2ccccc2)c1 | 0
O=C(Nc1ccc(S(=O)(=O)N2CCc3ccccc32)cc1)c1cccc([N+](=O)[O-])c1 | 1
Cc1nc2cc(NC(=O)c3cccc(S(=O)(=O)N4c5ccccc5CC4C)c3)ccc2o1 (stereo not drawn) | 0
O=C(Nc1ccc(F)c([N+](=O)[O-])c1)c1ccc(S(=O)(=O)Nc2ccc(Cl)cc2)cc1 [I-203] | 2
O=C(Nc1ccc(S(=O)(=O)Nc2cccc(Cl)c2)cc1)c1ccc(F)cc1 | 1
O=C(c1ccc(NS(=O)(=O)c2ccc(F)cc2)cc1)N1CCc2ccccc21 | 0

----------
Test system: apyrase
assay.info: Screen for apyrase inhibitors (Method 1, in vitro phosphate-release absorbance assay)
Format: biochemical
condition.label: inhibitor conc at 1 mM stock, 1 hr room temperature, absorbance 630 nm; rounded average of two assay results
# % Inhibition of Apyrase listing for each entry below
assay.metric: % Inhibition of Apyrase (%)

molecule | assay.metric | value
O=C(Nc1cccc([N+](=O)[O-])c1)c1cccc(S(=O)(=O)Nc2ccc(Cl)cc2)c1 [I-21] | % Inhibition of Apyrase | 45
COc1ccc(NC(=O)c2cccc(NS(=O)(=O)c3cc(Cl)ccc3Cl)c2)cn1 [I-654] | % Inhibition of Apyrase | 42
CC1Cc2ccccc2N1S(=O)(=O)c1cccc(C(=O)Nc2cccc(S(=O)(=O)N(C)C)c2)c1 (centres unmarked) [I-556] | % Inhibition of Apyrase | 52
O=C(Nc1ccccc1S(=O)(=O)N1CCCC1)c1cccc(C(F)(F)F)c1 [I-826] | % Inhibition of Apyrase | 40
Cc1ccc(NC(=O)c2cccc(S(=O)(=O)Nc3ccc(Br)cc3)c2)cc1S(=O)(=O)N1CCOCC1 [I-273] | % Inhibition of Apyrase | 52
O=C(Nc1cccnc1)c1cccc(S(=O)(=O)Nc2cccc(C(F)(F)F)c2)c1 [I-30] | % Inhibition of Apyrase | 21
O=C(Nc1cccc([N+](=O)[O-])c1)c1cccc(S(=O)(=O)Nc2cccc(F)c2)c1 [I-51] | % Inhibition of Apyrase | 10
C=CCN(c1ccccc1Cl)S(=O)(=O)c1cc(C(=O)N2CCc3ccccc32)ccc1Cl [I-516] | % Inhibition of Apyrase | 56

----------
Test system: apyrase
assay.info: Screen for apyrase inhibitors (Method 1, in vitro phosphate-release absorbance assay)
Type: biochemical
condition.label: inhibitor conc at 1 mM stock, 1 hr room temperature, absorbance 630 nm; rounded average of two assay results
If the reported % Inhibition of Apyrase equals or exceeds 60%, assign class 1. If not, assign class 0.

compound | category
CN(c1ccccc1)S(=O)(=O)c1cccc(NC(=O)c2ccc(Br)o2)c1 [I-722] | class 0
COc1ccc([N+](=O)[O-])cc1NS(=O)(=O)c1cccc(C(=O)Nc2ccc(F)c([N+](=O)[O-])c2)c1 [I-275] | class 0
O=C(Nc1cccc(C(F)(F)F)c1)c1cccc(S(=O)(=O)Nc2ccccc2F)c1 [I-285] | class 0
O=C(Nc1cccc(S(=O)(=O)Nc2cccc(C(F)(F)F)c2)c1)c1cc2c(s1)CCCC2 [I-724] | class 0
Cc1ccc(S(=O)(=O)Nc2ccccc2F)cc1C(=O)Nc1ccc(F)cc1F [I-611] | class 0
CCOc1ncccc1C(=O)Nc1cccc(S(=O)(=O)Nc2ccccc2OC)c1 [I-757] | class 0
CN(c1ccccc1)S(=O)(=O)c1cccc(NC(=O)c2cc(Cl)nc3ccccc23)c1 [I-739] | class 0
Cc1cccc(NC(=O)c2cccc(NS(=O)(=O)c3ccc(Cl)cc3)c2)c1 [I-7] | class 1
COc1ccc(S(=O)(=O)N2CCc3ccccc32)cc1C(=O)Nc1ccc(C)c(C)c1 [I-593] | class 0
COc1ccccc1NC(=O)c1ccc(NS(=O)(=O)c2ccc3c(c2)OCCO3)cc1 [I-898] | class 1
Cc1ccc(NS(=O)(=O)c2ccc(C(=O)Nc3cccc(C#N)c3)cc2)cc1C [I-384] | class 1
CSc1cccc(NC(=O)c2ccc(C(=O)Nc3cccc(SC)c3)cc2)c1 [I-861] | class 1
COc1ccc(NC(=O)c2cccc(S(=O)(=O)Nc3ccc4c(c3)OCO4)c2)cc1OC [I-277] | class 0
O=C(Nc1cccc(S(=O)(=O)N2CCCC2)c1)c1ccccc1NS(=O)(=O)c1cccc(C(F)(F)F)c1 [I-180] | class 1
O=C(Nc1ccc(S(=O)(=O)Nc2cccc(C(F)(F)F)c2)cc1)c1ccc(Cl)c([N+](=O)[O-])c1 [I-979] | class 0
C#Cc1cccc(NC(=O)c2ccccc2S(=O)(=O)N(C)c2ccccc2)c1 [I-352] | class 0

----------
System: apyrase
assay.info: Screen for apyrase inhibitors (Method 1, in vitro phosphate-release absorbance assay)
Assay type: biochemical
condition.label: inhibitor conc at 1 mM stock, 1 hr room temperature, absorbance 630 nm; rounded average of two assay results
# % Inhibition of Apyrase listing for each entry below
assay.metric: % Inhibition of Apyrase (%)

compound.structure | target.or.system | value
COc1ccc2c(c1)CCCN2C(=O)c1cccc(S(=O)(=O)N2CCc3ccccc32)c1 | apyrase | 56
O=C(Nc1nccs1)c1cccc(NS(=O)(=O)c2ccc3c(c2)OCCO3)c1 | apyrase | 29
O=C(Nc1ccc(N2CCOCC2)cc1)c1cccc(S(=O)(=O)N2CCc3ccccc32)c1 | apyrase | 29
Cc1ccc(NC(=O)c2sccc2C)c(S(=O)(=O)Nc2ccc(I)cc2)c1 | apyrase | 53
O=C(Nc1ccc(F)cc1)c1ccccc1NS(=O)(=O)c1cccc(C(F)(F)F)c1 | apyrase | 48
COc1ccc(NC(=O)c2ccc(NS(=O)(=O)c3ccc(F)cc3)cc2)cc1OC | apyrase | 19
Cc1ccc(S(=O)(=O)Nc2ccc(C(=O)Nc3ccc(F)cc3)cc2)cc1C | apyrase | 56
O=C(Nc1ccc(F)cc1)c1ccc(S(=O)(=O)Nc2cccc(C(F)(F)F)c2)cc1 | apyrase | 74
Cc1ccc(C(=O)Nc2cccc(NS(=O)(=O)c3ccccc3)c2)cc1[N+](=O)[O-] | apyrase | 52

----------
Tested on: apyrase
assay.info: Screen for apyrase inhibitors (Method 1, in vitro phosphate-release absorbance assay)
Format: biochemical
condition.label: inhibitor conc at 1 mM stock, 1 hr room temperature, absorbance 630 nm; rounded average of two assay results
# % Inhibition of Apyrase listing for each entry below
assay.metric: % Inhibition of Apyrase (%)

compound | value
CN(c1ccccc1)S(=O)(=O)c1ccccc1C(=O)N1CCCc2ccccc21 | 75
CN(c1ccccc1)S(=O)(=O)c1cc(C(=O)N2CCc3cc([N+](=O)[O-])ccc32)ccc1Cl | 58
Nc1c(Cl)cc(NC(=O)c2cccc(S(=O)(=O)N3CCc4ccccc43)c2)cc1Cl | 63
COc1ccc(N(C)S(=O)(=O)c2cccc(C(=O)Nc3ccc(OC)c(Cl)c3)c2)cc1 | 53
COc1ccc(S(=O)(=O)N2CCc3ccccc32)cc1C(=O)Nc1ccc2c(c1)OCCO2 | 48
COc1ccc(NS(=O)(=O)c2ccc(C(=O)Nc3cccc(C(C)=O)c3)cc2)cc1 | 16
COc1ccc(OC)c(NC(=O)c2cccc(S(=O)(=O)N3c4ccccc4CC3C)c2)c1 (centres unmarked) | 73
Cc1c(Cl)cccc1NC(=O)c1cccc(S(=O)(=O)N2CCc3ccccc32)c1 | 60

----------
System: apyrase
assay.info: Screen for apyrase inhibitors (Method 1, in vitro phosphate-release absorbance assay)
Type: biochemical
condition.label: inhibitor conc at 1 mM stock, 1 hr room temperature, absorbance 630 nm; rounded average of two assay results
If the reported % Inhibition of Apyrase equals or exceeds 60%, assign YES. If not, assign NO.

compound.structure | target.or.system | category
O=C(c1ccc(S(=O)(=O)Nc2ccccc2)cc1)N1CCc2ccccc21 | apyrase | YES
O=C(CNC(=O)c1ccccc1F)Nc1cccc(S(=O)(=O)Nc2ccc(Br)cc2)c1 | apyrase | YES
COc1ccc(S(=O)(=O)N2CCc3ccccc32)cc1C(=O)Nc1ccccc1C | apyrase | YES
O=C(Nc1ccccn1)c1cccc(S(=O)(=O)Nc2cccc(Cl)c2)c1 | apyrase | NO
Cc1cc(C(=O)Nc2cccc(S(=O)(=O)Nc3ccccc3F)c2)c(C)n1C1CC1 | apyrase | YES
O=C(NCCCN1CCOCC1)c1cccc(S(=O)(=O)Nc2ccc(Br)cc2)c1 | apyrase | NO
Cc1ccc(NC(=O)c2ccc(NS(=O)(=O)c3ccccc3)cc2)cc1C | apyrase | NO

Attribution: patent US12685312B2
